# target-or-test-system: Mitogen-activated protein kinase kinase kinase 20 (Homo sapiens, UniProt Q9NYL2)
# Sequence (Q9NYL2 whole entry): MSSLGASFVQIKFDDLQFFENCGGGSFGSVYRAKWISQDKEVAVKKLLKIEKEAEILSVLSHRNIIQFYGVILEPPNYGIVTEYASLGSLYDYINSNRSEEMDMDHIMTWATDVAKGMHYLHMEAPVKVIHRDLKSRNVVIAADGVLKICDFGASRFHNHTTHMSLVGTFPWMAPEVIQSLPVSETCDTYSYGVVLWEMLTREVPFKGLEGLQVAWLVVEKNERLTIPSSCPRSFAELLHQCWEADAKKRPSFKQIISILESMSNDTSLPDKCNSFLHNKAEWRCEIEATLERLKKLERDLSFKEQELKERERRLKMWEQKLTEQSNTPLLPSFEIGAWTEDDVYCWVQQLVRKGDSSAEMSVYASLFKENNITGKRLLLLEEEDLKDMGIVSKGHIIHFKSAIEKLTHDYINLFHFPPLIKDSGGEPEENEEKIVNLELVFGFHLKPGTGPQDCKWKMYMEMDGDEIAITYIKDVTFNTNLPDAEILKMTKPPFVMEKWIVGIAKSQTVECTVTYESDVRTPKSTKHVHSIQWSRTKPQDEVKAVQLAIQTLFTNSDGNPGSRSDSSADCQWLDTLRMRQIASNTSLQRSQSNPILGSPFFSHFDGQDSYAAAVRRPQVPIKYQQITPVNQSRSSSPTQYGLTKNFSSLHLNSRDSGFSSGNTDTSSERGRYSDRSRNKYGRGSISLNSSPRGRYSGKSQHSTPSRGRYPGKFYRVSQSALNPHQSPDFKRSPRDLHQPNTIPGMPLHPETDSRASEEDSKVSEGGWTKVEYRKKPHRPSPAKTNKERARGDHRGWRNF
# test-protocol: Inhibition of N-terminal GST-tagged recombinant human full-length ZAK expressed in baculovirus infected Sf9 insect cells using MBP as substrate after 30 mins by ADP-Glo assay
# if measured IC50 < 4 nM: criterion met  # else: criterion not met

>  <line-notation>
COc1n[nH]c2ncc(-c3nnc(-c4c(F)ccc(NS(=O)(=O)c5cccc(Cl)c5)c4F)o3)cc12

>  <classification>
criterion not met

$$$$
>  <line-notation>
COc1n[nH]c2ncc(-c3cn(-c4c(F)ccc(NS(=O)(=O)c5cccc(C)c5)c4F)nn3)cc12

>  <classification>
criterion not met

$$$$
>  <line-notation>
COc1n[nH]c2ncc(-c3cn(-c4c(F)ccc(NS(=O)(=O)c5cccc6ccccc56)c4F)nn3)cc12

>  <classification>
criterion not met

$$$$
>  <line-notation>
COc1n[nH]c2ncc(-c3cn(-c4cccc(NS(=O)(=O)c5cccc(Cl)c5)c4)nn3)cc12

>  <classification>
criterion not met

$$$$
>  <line-notation>
COc1n[nH]c2ncc(-c3cn(-c4c(F)ccc(NS(=O)(=O)c5cccc(C(C)C)c5)c4F)nn3)cc12

>  <classification>
criterion not met

$$$$
>  <line-notation>
COc1n[nH]c2ncc(-c3cn(-c4cccc(NS(=O)(=O)c5cccc(Cl)c5)c4F)nn3)cc12

>  <classification>
criterion met

$$$$

----------
# test-protocol: AUC (0 to t) in Sprague-Dawley rat at 10 mg/kg, po by HPLC/MS analysis
# Assay type: ADME, organism-based
# details: in vivo

>  <line-notation>
COc1n[nH]c2ncc(-c3cn(-c4c(F)ccc(NS(=O)(=O)c5cccc(-c6ccccc6)c5)c4F)nn3)cc12

>  <AUC(0-t) [ng·h/mL]>
71600

$$$$

----------
# test-protocol: Half life in Sprague-Dawley rat at 10 mg/kg, po by HPLC/MS analysis
# Format: ADME, organism-based
# details: in vivo

>  <line-notation>
COc1n[nH]c2ncc(-c3cn(-c4c(F)ccc(NS(=O)(=O)c5cccc(-c6ccccc6)c5)c4F)nn3)cc12

>  <half-life / h>
1.7

$$$$

----------
# test-protocol: Cmax in Sprague-Dawley rat at 10 mg/kg, po by HPLC/MS analysis
# Format: ADME, organism-based
# Set-up: dose 10 mg/kg, route oral
# details: in vivo

>  <line-notation>
COc1n[nH]c2ncc(-c3cn(-c4c(F)ccc(NS(=O)(=O)c5cccc(-c6ccccc6)c5)c4F)nn3)cc12

>  <Cmax>
16400 ng/mL

$$$$

----------
# test-protocol: AUC (0 to infinity) in Sprague-Dawley rat at 2.5 mg/kg, iv by HPLC/MS analysis
# Assay type: ADME, organism-based
# Set-up: dose 2.5 mg/kg, route intravenous, time infinity
# details: in vivo

>  <line-notation>
COc1n[nH]c2ncc(-c3cn(-c4c(F)ccc(NS(=O)(=O)c5cccc(-c6ccccc6)c5)c4F)nn3)cc12

>  <endpoint-unit>
ng·h/mL

>  <AUC(0-inf)>
27900

$$$$

Data origin: ChEMBL document CHEMBL4354801
